Provenance of the data: patent US10947242B2

Study Target: Human recombinant PDE3A (hPDE3A) (Homo sapiens, UniProt Q14432)
Construct: purchased Scottish Biomedical; host or cells: Sf9 insect cells
Sequence (Q14432 whole entry): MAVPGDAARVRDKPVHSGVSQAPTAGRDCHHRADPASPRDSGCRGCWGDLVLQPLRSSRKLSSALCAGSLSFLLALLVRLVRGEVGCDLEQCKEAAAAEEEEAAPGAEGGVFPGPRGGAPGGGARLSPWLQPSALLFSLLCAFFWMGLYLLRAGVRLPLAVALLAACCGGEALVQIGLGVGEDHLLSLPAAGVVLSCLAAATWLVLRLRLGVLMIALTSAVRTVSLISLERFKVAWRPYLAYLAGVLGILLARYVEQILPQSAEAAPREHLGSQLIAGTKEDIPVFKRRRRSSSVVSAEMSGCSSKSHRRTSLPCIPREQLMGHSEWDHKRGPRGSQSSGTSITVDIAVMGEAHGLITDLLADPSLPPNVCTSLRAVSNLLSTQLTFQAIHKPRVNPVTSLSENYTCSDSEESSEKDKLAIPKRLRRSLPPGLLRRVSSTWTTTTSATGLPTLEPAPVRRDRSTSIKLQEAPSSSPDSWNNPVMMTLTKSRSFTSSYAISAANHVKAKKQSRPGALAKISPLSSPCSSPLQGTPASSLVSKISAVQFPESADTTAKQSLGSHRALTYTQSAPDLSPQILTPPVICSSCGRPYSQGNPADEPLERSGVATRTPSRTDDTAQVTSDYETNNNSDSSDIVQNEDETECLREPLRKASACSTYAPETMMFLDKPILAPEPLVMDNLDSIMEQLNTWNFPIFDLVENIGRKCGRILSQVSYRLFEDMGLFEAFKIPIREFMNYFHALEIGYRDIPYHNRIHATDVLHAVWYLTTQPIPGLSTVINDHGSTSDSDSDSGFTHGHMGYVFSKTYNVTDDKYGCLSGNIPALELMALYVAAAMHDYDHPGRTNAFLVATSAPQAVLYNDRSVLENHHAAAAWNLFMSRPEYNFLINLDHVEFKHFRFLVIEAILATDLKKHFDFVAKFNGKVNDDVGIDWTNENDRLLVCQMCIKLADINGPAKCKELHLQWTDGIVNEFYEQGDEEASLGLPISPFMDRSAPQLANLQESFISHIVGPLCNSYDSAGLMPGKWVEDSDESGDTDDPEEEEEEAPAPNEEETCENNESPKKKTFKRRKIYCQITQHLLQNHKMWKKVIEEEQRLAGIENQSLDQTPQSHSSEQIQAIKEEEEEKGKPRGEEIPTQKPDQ
Assay Comment: In vitro assay PDE3A (SPA, 3H-cAMP hydrolysis);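 also: the method names PDE3A and the table heading PDE3B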
Assay type: biochemical
Experimental Conditions: hPDE3B pIC50; read-out: pIC50 (converted)
Parameter Measured: IC50

Consider the reported IC50 for these molecules:
IC50 reported for this molecule Cc1cc(C(=O)N2CC[C@@H](C)[C@H](c3cc(C(F)F)nc4ncnn34)C2)c(F)c(C)n1 : 5.13 µM

response.value for Cc1cc(C(=O)N2CC[C@@H](C)[C@H](c3cc(C(F)F)nc4ncnn34)C2)on1 (field: IC50) = > 10 µM

Please fill in: IC50 reported for Cc1cc([C@@H]2CN(C(=O)c3nc4ccccc4o3)CC[C@H]2C)n2ncnc2n1 = 1.51 µM

Summary for this molecule, C[C@@H]1CCN(C(=O)c2cc(F)ccn2)C[C@H]1c1cc(C(F)F)nc2ncnn12 : IC50 is > 10 µM

The molecule identified as COc1nc(C2CC2)cc(C(=O)N2CC[C@@H](C)[C@H](c3cc(C(F)F)nc4ncnn34)C2)c1F registered its IC50 at 1.29 µM

Continuing:
Sample Cc1cc(C(=O)N2[C@H]3CC[C@@H]2[C@H](c2cc(C(F)F)nc4ncnn24)CC3)cc(C(F)(F)F)n1 ; IC50 observed: > 10 µM

Note to self: IC50 recorded for C[C@@H]1CCN(C(=O)c2ccc(C#N)cn2)C[C@H]1c1cc(C(F)F)nc2ncnn12 was > 10 µM

Documented IC50 of Cc1cc(C(=O)N2C3CCC2[C@@H](c2cc(C(F)F)nc4ncnn24)CC3)cc(C2CC2)n1 (some centres unmarked) : > 10 µM

get_value(item= Cc1cc(C(=O)N2CC[C@@H](C)[C@H](c3cc(C(F)F)nc4ncnn34)C2)cc(C2CC2)n1 , readout=IC50) returns 2.57 µM

Given item Cc1cc(C(=O)N2[C@H]3CC[C@H](c4cc(C(F)F)nc5ncnn45)[C@@H]2CC3)cc(C)n1 , the value recorded as its IC50 is > 10 µM

// IC50 value for C[C@]1(c2cc(C(F)F)nc3ncnn23)CCCN(C(=O)c2ccc3c(ccn3CCF)c2)C1 (single isomer, unassigned) : > 10 µM

The reported IC50 of the molecule C[C@@H]1CCN(C(=O)c2ccc3cc[nH]c3c2)C[C@H]1c1cc(C(F)F)nc2ncnn12 was 0.389 µM

Item: Cc1cc(C(=O)N2CC[C@@H](C)[C@H](c3cc(C(F)F)nc4ncnn34)C2)c(C(F)(F)F)cn1 | IC50: > 10 µM

The measured IC50 associated with C[C@@H]1CCN(C(=O)c2cnc(Cl)c(Cl)c2)C[C@H]1c1cc(C(F)F)nc2ncnn12 reads 6.76 µM

For record C[C@@H]1CCN(C(=O)c2cc(C3CC3)ncc2F)C[C@@]1(F)c1cc(C(F)F)nc2ncnn12 the listed IC50 is > 10 µM
